Entry source: the kinase profiling compilation of Christmann-Franck et al. (2016)

Listed here: items and their measured kinase still bound, per cent of control.
# system-name: PIM1 (human) (UniProt P11309)
# Sequence (P11309 whole entry, looked up): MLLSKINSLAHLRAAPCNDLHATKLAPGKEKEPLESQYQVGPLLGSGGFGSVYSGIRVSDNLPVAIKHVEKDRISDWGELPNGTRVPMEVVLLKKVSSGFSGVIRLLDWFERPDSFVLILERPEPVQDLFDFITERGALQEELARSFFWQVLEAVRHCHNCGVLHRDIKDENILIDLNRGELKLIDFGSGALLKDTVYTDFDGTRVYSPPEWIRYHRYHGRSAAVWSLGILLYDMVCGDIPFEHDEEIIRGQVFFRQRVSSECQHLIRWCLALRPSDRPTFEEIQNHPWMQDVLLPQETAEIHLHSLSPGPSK
# test-protocol: KINOMEscan competition binding
# measurement-context: compound 10.0 µM
Please format your answer as a value with the unit trailing.

Worked set:
{"test-smiles": "CN1C(=O)c2ccccc2N(C)c2nc(Nc3ccc(N4CCC(O)CC4)cc3)ncc21", "val": "91%"}
{"test-smiles": "O=C1NC(=S)S/C1=C\\c1ccc(-c2cccc3ccccc23)o1", "val": "3%"}

// below: kinase still bound, per cent of control requested for another compound
In: Determine from records and report kinase still bound, per cent of control for COc1cc(N2CCN(C)CC2)ccc1Nc1ncc2c(n1)N(C)c1sccc1C(=O)N2C
Out: 66%
